target: DN quality control product recombinant protein (a recombinant antigen produced by the company itself) (dengue virus); assay: AMO sensor, antibody on sensor, antigen in solution
experimentalEndpoint: kon (M⁻¹ s⁻¹)
Output spec: scalar in M⁻¹ s⁻¹, unitless text.

Reference set, count: 3
Can you share its kon? I mean this binder: Mutation 1-46 (antibody, V domains shown) VH: QVQLQQSGAELVRPGTSVKISCKASGYTFTEYWIGWVKQRPGHGLEWIGDMFPGDIYINYNEKFKGKATLTADTSSNTAYMQLSSLTSEDSAVYFCTNFITLGGIDYWGRGTSLTVSS VL: DVVMTQTPLTLSVTIGQPASISCKSSNSLLDSDGRTYLNWLLQRPGQSPKRLIYLVSKVDSGVPDRFTGSGSVTDFTLKISRVESEDLGVYYCWYGTHFPHTFGAGTKLEVKR 59900

Can you share its kon? I mean this binder: WT 1-20 (antibody, V domains shown) VH: QVQLQQSGAELVRPGTSVKISCKASGYSFTDYWIGWVKQRPGHGLEWIGDMVPGDIYINYQEKFKGKATLTADTSSNTAYMQLSSLTSEDSAVYFCTNFITVGGLDYWGRGTSLTVSS VL: DVVMTQTPLTLSVTIGQPASISCKSSQSLLESDGRTYLNWLLQRPGQSPKRLIYLVTKLDSGVPDRFTGSGSVTDFTLKISRVESEDLGVYYCWWGTHFAHTFGAGTKLEVKR 3120

Can you share its kon? I mean this binder: WT 1-30 (antibody, V domains shown) VH: QVQLQQSGAELVRPGTSVKISCKASGYSFTEYWIGWVKQRPGHGLEWIGDMVPGDLYINYNEKFKGKATLTADTSSNTAYMQLSSLTSEDSAVYFCTNFLTVGGVDYWGRGTSLTVSS VL: DVVMTQTPLTLSVTIGQPASISCKSSNSLLESDGKTYLNWLLQRPGQSPKRLIYLVTKIDSGVPDRFTGSGSVTDFTLKISRVESEDLGVYYCWWGTHFAHTFGAGTKLEVKR 7280

Others:
Can you share its kon? I mean this binder: Mutation 1-28 (antibody, V domains shown) VH: QVQLQQSGAELVRPGTSVKISCKASGYTFTDYWIGWVKQRPGHGLEWIGDMFPGDIYINYNEKFKGKATLTADTSSNTAYMQLSSLTSEDSAVYFCTNFITLGGIDYWGRGTSLTVSS VL: DVVMTQTPLTLSVTIGQPASISCKSSNSLLDSDGRTYLNWLLQRPGQSPKRLIYLVSKIDSGVPDRFTGSGSVTDFTLKISRVESEDLGVYYCWYGTHFPHTFGAGTKLEVKR 51200

Reference for the values: patent US20210301000A1
